- test-system: Methionine--tRNA ligase, mitochondrial (Homo sapiens) (UniProt Q96GW9)
- Sequence (Q96GW9 whole entry, looked up): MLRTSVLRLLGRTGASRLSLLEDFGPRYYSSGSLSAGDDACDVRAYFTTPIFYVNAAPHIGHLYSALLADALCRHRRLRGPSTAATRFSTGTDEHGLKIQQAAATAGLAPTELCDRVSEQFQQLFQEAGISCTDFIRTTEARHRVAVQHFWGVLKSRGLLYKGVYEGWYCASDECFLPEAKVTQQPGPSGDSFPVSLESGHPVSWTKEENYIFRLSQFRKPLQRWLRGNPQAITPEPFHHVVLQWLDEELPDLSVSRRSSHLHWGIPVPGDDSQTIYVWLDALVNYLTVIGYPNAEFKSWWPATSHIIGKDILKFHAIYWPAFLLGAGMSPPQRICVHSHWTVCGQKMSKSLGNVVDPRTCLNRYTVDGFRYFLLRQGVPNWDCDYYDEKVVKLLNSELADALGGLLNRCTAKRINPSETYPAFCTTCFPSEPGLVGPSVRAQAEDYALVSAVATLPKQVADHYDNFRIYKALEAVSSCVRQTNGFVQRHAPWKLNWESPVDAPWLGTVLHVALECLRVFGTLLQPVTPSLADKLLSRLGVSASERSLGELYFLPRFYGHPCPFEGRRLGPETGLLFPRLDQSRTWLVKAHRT
- protocol: human mitochondrial MetRS inhibitors, late-stage follow-up, counter-screen for T. brucei MetRS inhibitor project, biochemical, radioactivity, [3H]methionine, two concentrations (AID 720620)
- experimental-context: recombinant human mitochondrial MetRS, [3H]Met-tRNA charging, 60 min; at 10 µM; stronger effect = higher value
Active and inactive are the calls of the source.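 Rule for the calls: active = at least 50% inhibition of the human mitochondrial methionine-charging enzyme at 10 µM; inactive = under 50% inhibition at 10 µM.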
measured-property: inhibition

These recorded examples may help you get a feel for the data.
Clc1ccc(-c2nnc(SCc3nc4ccccc4[nH]3)o2)c(Cl)c1	41.9% (inactive)
CC(C)(C)[C@H]1C=C(C(=O)NCc2nc3ccccc3[nH]2)O[C@@H](OCc2ccc(CO)cc2)C1	10.3% (inactive)

Incoming: Record request: inhibition value, item CC(=O)c1c[nH]c(C(=O)NCc2cccc(C(F)(F)F)c2)c1
Outgoing: 43.8% (inactive)

Incoming: How about O=C(NCc1nc2ccccc2[nH]1)C1=C[C@H](c2ccc(Br)cc2)C[C@H](OCc2ccc(CO)cc2)O1 ?
Outgoing: 17.2% (inactive)

---

- test-system: UniProt:Q96GW9
- protocol: human mitochondrial MetRS inhibitors, late-stage follow-up, counter-screen for T. brucei MetRS inhibitor project, biochemical, radioactivity, [3H]methionine, two concentrations (AID 720620)
- experimental-context: recombinant human mitochondrial MetRS, [3H]Met-tRNA charging, 60 min; inhibition; at 1 µM; stronger effect = higher value
measured-property: inhibition (%)
Give the value, in units of %, as a plain number.

Example cases with answers are listed next.
O=C1CC(N(CCc2ccccc2)C(=S)Nc2ccccc2)C(=O)N1c1ccc(Br)cc1 (stereo not given)	-25.5
O=C(NCc1nc2ccccc2[nH]1)C1=C[C@@H](c2csc3ccccc23)C[C@@H](OCCCCO)O1	-15
CC(C)(C)[C@H]1C=C(C(=O)NCc2nc3ccccc3[nH]2)O[C@@H](OCc2ccc(CO)cc2)C1	-20.5

Incoming: Fill in: inhibition of CN(CC(=O)Nc1ccc(Cl)cc1)C(=O)c1ccc(-n2cncn2)c([N+](=O)[O-])c1 is ___
Outgoing: -36.7

Incoming: Please answer likewise for O=C(NCc1nc2ccccc2[nH]1)C1=C[C@H](C2CC2)C[C@H](OCc2ccc(CO)cc2)O1
Outgoing: 7.99

Incoming: Same read-out for O=C(C[C@H]1C(=O)N(Cc2ccccc2)C[C@@H]1c1ccc(Br)cc1)Nc1ccc(Br)cc1 ?
Outgoing: -13

Incoming: Next record, please: O=C(NCc1nc2ccccc2[nH]1)C1=C[C@@H](c2ccc(Br)cc2)C[C@@H](OCCCCO)O1
Outgoing: -9.46

Incoming: Now give it for CCO[C@H]1OC(C(=O)NCc2nc3ccccc3[nH]2)=C[C@@H](c2ccc(Br)cc2)[C@@H]1CCCO too.
Outgoing: -15

Incoming: // query: O=C(NCc1nc2ccccc2[nH]1)C1=C[C@H](c2ccc(Br)cc2)C[C@H](OCCCCO)O1
Outgoing: -6.37

Incoming: Now the same for C[C@H](O)[C@@H]1C(=O)N2CCc3c([nH]c4ccccc34)[C@@H]2C[C@@H]1N(C)Cc1ccc2c(c1)OCO2
Outgoing: -17.7

Incoming: Consider next the molecule O=C1CC(SCc2nc3ccccc3[nH]2)C(=O)N1c1cccc(Cl)c1 (stereo not given) in the same way.
Outgoing: -4.5

Incoming: For O=C(Nc1ccc(F)c(Cl)c1)C1CC(=O)n2c(nc3ccccc32)N1 (stereo not given) then?
Outgoing: -11.1

Incoming: Now consider CC(C)OCCCN1CC(=O)N2C(c3cccc([N+](=O)[O-])c3)c3[nH]c4ccccc4c3C[C@H]2C1=O (stereo not given in full) and answer again.
Outgoing: -24.2

Incoming: # repeat for Oc1c(Cl)cc(Cl)cc1CNc1nc2ccccc2[nH]1
Outgoing: -0.2

Incoming: Again, but for COc1ccc(OCC(O)CNC(=O)Nc2ccc(Cl)cc2)cc1 (stereo not given)
Outgoing: -6.26

Incoming: Check O=C(CN1CCSC1=NCc1ccccc1)c1ccc(Cl)c(Cl)c1 too.
Outgoing: -25.1

Incoming: For O=C(NNC(=O)c1cc(-c2ccc(Cl)c(Cl)c2)nc2ccccc12)Nc1ccccc1 then?
Outgoing: -17.1

Incoming: Consider next the molecule O=C(NCc1nc2ccccc2[nH]1)C1=C[C@H](c2ccc(Br)cc2)C[C@H](OCc2ccc(CO)cc2)O1 in the same way.
Outgoing: 0.59

Incoming: Also need O=C(NCc1nc2ccccc2[nH]1)C1=C[C@@H](C2CC2)C[C@@H](OCc2ccc(CO)cc2)O1 , thanks.
Outgoing: -11.4

Incoming: And for O=C(CC=NOCc1ccc([N+](=O)[O-])cc1)Nc1ccc(Br)cc1 ?
Outgoing: -22.4
